Where these numbers come from: patent US20230233569A1

pIC50: recorded values
- TGT: NRAS Q61K (Homo sapiens, UniProt P01111+P62937, Q61K)
- Sequence (P01111 whole entry Q61K): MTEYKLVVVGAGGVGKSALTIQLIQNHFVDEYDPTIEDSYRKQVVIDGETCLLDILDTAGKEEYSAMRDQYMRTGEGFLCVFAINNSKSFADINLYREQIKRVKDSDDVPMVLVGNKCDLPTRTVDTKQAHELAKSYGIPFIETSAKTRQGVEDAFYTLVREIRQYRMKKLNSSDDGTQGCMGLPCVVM
- Sequence (P62937 whole entry): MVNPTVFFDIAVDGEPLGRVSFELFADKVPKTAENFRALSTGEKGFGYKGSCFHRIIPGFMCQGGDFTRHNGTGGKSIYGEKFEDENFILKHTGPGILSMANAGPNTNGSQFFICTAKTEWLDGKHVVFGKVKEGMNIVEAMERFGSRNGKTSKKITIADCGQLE
- PROCEDURE DETAILS: Disruption of BRAF RBD interaction with Ras (FRET / MOA assay, with Cyclophilin A)
- Assay type: biochemical
- CONDITION INFO: NRAS Q61K; read-out: NRAS Q61K FRET data IC50
pIC50: −log10 of the molar value.
QUANTITY: pIC50

CCn1c(-c2cccnc2[C@H](C)OC)c2c3cc(ccc31)-c1csc(n1)C[C@H](NC(=O)[C@H](C(C)C)N(C)C(=O)O[C@H]1CCOC1)C(=O)N1CCC[C@H](N1)C(=O)OCC(C)(C)C2 :: 6.00 to 7.00
C=CC(=O)N1CC[C@H](C(=O)N(C)[C@H](C(=O)N[C@H]2Cc3cccc(c3)-c3ccc4c(c3)c(c(-c3cccnc3[C@H](C)OC)n4CC)CC(C)(C)COC(=O)C3CCCN(N3)C2=O)[C@H](C)C(F)(F)F)C1 (stereo partly drawn) :: 5.00 to 6.00
CCn1c(-c2cccnc2[C@H](C)OC)c2c3cc(ccc31)-c1csc(n1)C[C@H](NC(=O)[C@H](C(C)C)N(C)C(=O)N1C[C@H]3OCCN(C)[C@H]3C1)C(=O)N1CCC[C@H](N1)C(=O)OCC(C)(C)C2 (atropisomer, axis not shown) :: 7.00 to 8.00
CCn1c(-c2cccnc2[C@H](C)OC)c2c3cc(ccc31)-c1csc(n1)C[C@H](NC(=O)[C@H](C(C)C)N(C)C(=O)N1C[C@H](C)N(C)C[C@@H]1C)C(=O)N1CCC[C@H](N1)C(=O)OCC(C)(C)C2 :: 6.00 to 7.00
C=CC(=O)N1CCO[C@H]2CN(C(=O)N(C)[C@H](C(=O)N[C@H]3Cc4cccc(n4)-c4ccc5c(c4)c(c(-c4cccnc4[C@H](C)OC)n5CC)CC(C)(C)COC(=O)C4CCCN(N4)C3=O)C(C)C)C[C@H]21 (stereo partly drawn) :: 6.00 to 7.00
CCn1c(-c2cccnc2[C@H](C)OC)c2c3cc(ccc31)-c1cc(O)cc(c1)C[C@H](NC(=O)C13CCCC1C3(F)F)C(=O)N1CCC[C@H](N1)C(=O)OCC(C)(C)C2 (stereo partly drawn) :: 5.00 to 6.00
CCn1c(-c2cccnc2[C@H](C)OC)c2c3cc(ccc31)-c1csc(n1)C[C@H](NC(=O)N1CCC[C@@H]1COC)C(=O)N1CCC[C@H](N1)C(=O)OCC(C)(C)C2 (atropisomer, axis not shown) :: 7.00 to 8.00
CCn1c(-c2cccnc2[C@H](C)OC)c2c3cc(ccc31)-c1cc(O)cc(c1)C[C@H](NC(=O)[C@H](C(C)C)N(C)C(=O)[C@H]1CCN(C(=O)OC)C1)C(=O)N1CCC[C@H](N1)C(=O)OCC(C)(C)C2 (atropisomer, axis not shown) :: 6.00 to 7.00
CCn1c(-c2cccnc2[C@H](C)OC)c2c3cc(ccc31)-c1csc(n1)C[C@H](NC(=O)[C@H](C(C)C)N(C)C(=O)N1CCCC13CCN(C)CC3)C(=O)N1CCC[C@H](N1)C(=O)OCC(C)(C)C2 :: 6.00 to 7.00
